Sourced from patent US20120324604A1

- Test system: Rhizoctonia solani
- assay-text: Rhizoctonia solani (Foot Rot, Damping-Off) growth inhibition, microtiter plate, photometric
- Type: cell-based
- study-conditions: applied alone, 2.5 ppm AI
Overview of reported AVERAGE DEAD IN % across a group of compounds:

# compound, unit-label, AVERAGE DEAD IN %
rows = [
    ("Cc1cc(C2=NOC(c3cc(Cl)cc(Cl)c3)(C(F)(F)F)C2)ccc1C(=O)NC1(C)CSC1 (racemic) [A1]", "%", 0),
    ("Cc1cc(C2=NOC(c3cc(Cl)cc(Cl)c3)(C(F)(F)F)C2)ccc1C(=O)NC1C[S+]([O-])C1 (stereo not shown) [A6]", "%", 0),
    ("Cc1cc(C2=NOC(c3cc(Cl)cc(Cl)c3)(C(F)(F)F)C2)ccc1C(=O)NC1CSC1 (racemic) [A5]", "%", 0),
    ("Cc1cc(C2=NOC(c3cc(Cl)cc(Cl)c3)(C(F)(F)F)C2)ccc1C(=O)NC1CS(=O)(=O)C1 (racemic) [A8]", "%", 0),
]

* * *

Overview of reported AVERAGE DEAD IN % across a group of molecules:
- Tested on: Septoria tritici
- assay-text: Septoria tritici (Leaf Blotch) growth inhibition, microtiter plate, photometric
- Assay type: cell-based
- study-conditions: 0.125 ppm AI, alone
measured-metric: AVERAGE DEAD IN % (%)

# molecule, measured-metric, unit-label, test-result
records = [
    ("Cn1cc(C(=O)Nc2cccc3c2C2CCC3C2=C(Cl)Cl)c(C(F)F)n1 (centres unmarked) [COMPOUND III]", "AVERAGE DEAD IN %", "%", 20),
    ("CC1COC(Cn2cncn2)(c2ccc(Oc3ccc(Cl)cc3)cc2Cl)O1 (centres unmarked) [Difenoconazole]", "AVERAGE DEAD IN %", "%", 90),
    ("COC(c1ccc(Cl)cc1Cl)C(C)NC(=O)c1cn(C)nc1C(F)F (centres unmarked) [COMPOUND IV]", "AVERAGE DEAD IN %", "%", 20),
    ("CC(C)C1C2CCC1c1c(NC(=O)c3cn(C)nc3C(F)F)cccc12 (centres unmarked) [Isopyrazam, reference compound]", "AVERAGE DEAD IN %", "%", 50),
    ("CO/C=C(/C(=O)OC)c1ccccc1Oc1cc(Oc2ccccc2C#N)ncn1 [Azoxystrobin, reference compound]", "AVERAGE DEAD IN %", "%", 90),
]

* * *

- System: Rhizoctonia solani
- assay-text: Rhizoctonia solani (Foot Rot, Damping-Off) growth inhibition, microtiter plate, photometric
- Format: cell-based
- study-conditions: applied alone, 0.15625 ppm AI
Overview of reported AVERAGE DEAD IN % across a group of compounds:
measured-metric: AVERAGE DEAD IN % (%)

# compound, measured-metric, test-result
data = [
    ("Cc1cc(C2=NOC(c3cc(Cl)cc(Cl)c3)(C(F)(F)F)C2)ccc1C(=O)NC1CSC1 (racemic)", "AVERAGE DEAD IN %", 0),
    ("Cc1cc(C2=NOC(c3cc(Cl)cc(Cl)c3)(C(F)(F)F)C2)ccc1C(=O)NC1(C)CSC1 (racemic)", "AVERAGE DEAD IN %", 0),
    ("Cc1cc(C2=NOC(c3cc(Cl)cc(Cl)c3)(C(F)(F)F)C2)ccc1C(=O)NC1CS(=O)(=O)C1 (racemic)", "AVERAGE DEAD IN %", 0),
    ("Cc1cc(C2=NOC(c3cc(Cl)cc(Cl)c3)(C(F)(F)F)C2)ccc1C(=O)NC1C[S+]([O-])C1 (stereo not shown)", "AVERAGE DEAD IN %", 0),
]

* * *

- System: Gaeumannomyces graminis
- assay-text: Gaeumannomyces graminis growth inhibition, microtiter plate, photometric
- Assay type: cell-based
- study-conditions: single compound at 1 ppm AI
measured-metric: AVERAGE DEAD IN % (%)

# compound, test-result
records = [
    ("CC(C1CC1)C(O)(Cn1cncn1)c1ccc(Cl)cc1 (stereo not shown) [Cyproconazole]", 70),
    ("COCC(=O)N(c1c(C)cccc1C)[C@H](C)C(=O)OC [Mefenoxam, reference compound]", 0),
    ("Cn1cc(C(=O)Nc2cccc3c2C2CCC3C2=C(Cl)Cl)c(C(F)F)n1 (stereo not shown) [COMPOUND III]", 100),
    ("CO/C=C(/C(=O)OC)c1ccccc1Oc1cc(Oc2ccccc2C#N)ncn1 [Azoxystrobin, reference compound]", 90),
    ("COC(c1ccc(Cl)cc1Cl)C(C)NC(=O)c1cn(C)nc1C(F)F (stereo not shown) [COMPOUND IV]", 0),
    ("C#CCOc1ccc(CCNC(=O)C(OCC#C)c2ccc(Cl)cc2)cc1OC (stereo not shown) [Mandipropamid, reference compound]", 0),
    ("CC1COC(Cn2cncn2)(c2ccc(Oc3ccc(Cl)cc3)cc2Cl)O1 (stereo not shown) [Difenoconazole]", 20),
]
